meta.source: PubChem BioAssay (NCI)

assay: NCI Yeast Anticancer Drug Screen. Data for the mlh1 rad18 strain (AID 175); conditions: S. cerevisiae mlh1 rad18 strain growth inhibition; at 50.0 µM; active compounds read high
The panel holds about 79,000 compounds, 15% with a hit somewhere; the sample as a whole holds those more often. Active and inactive are the calls of the source. Cut-off read from the data, not from the text of the source: active = growth inhibition above about 70%; inactive = the rest. Where a SMILES comes first, the peptide text is derived from it. The star is where a group is joined. Trt = c1ccc(C(c2ccccc2)(c2ccccc2)*)cc1; Benzhydryl = c1ccc(C(c2ccccc2)*)cc1; Cbz = O=C(OCc1ccccc1)*
reported.metric: growth inhibition

Known results for molecules:
{"columns": ["molecule", "growth inhibition"],
 "data": [
  ["NC(CCC(N)C(=O)O)C(=O)O (centres undefined)", "-18.1% (inactive)"],
  ["Cc1cccc(N2CCN(S(C)(=O)=O)CC2)c1", "5% (inactive)"],
  ["CC(C)c1cccc(C(C)C)c1NC(=O)Nc1cccc(C(F)(F)F)c1", "3.85% (inactive)"],
  ["COC(=O)C(Cc1ccccc1)NC(=O)C(Cc1ccccc1)NC(=O)CNC(=O)C(CSC(c1ccccc1)c1ccccc1)NC(=O)C(CSC(c1ccccc1)(c1ccccc1)c1ccccc1)NC(=O)OCc1ccccc1 (centres undefined) (Cbz-C(Trt)C(Benzhydryl)GFF-OMe; configuration not given here)", "28.1% (inactive)"],
  ["O=C(Nc1ccc(Cl)c(Cl)c1)OCCN1CCOCC1", "92.8% (active)"],
  ["Cc1ccc(S(=O)(=O)N2CC(O)C=Cc3ccccc32)cc1 (centres undefined)", "9.85% (inactive)"],
  ["COC1=CC(=O)C(C2CC(=O)c3c(O)cc(O)cc3O2)=CC1=O (centres undefined)", "-63.9% (inactive)"],
  ["COc1ccc(C=Nc2ccc([N+](=O)[O-])cc2O)cc1", "1.6% (inactive)"]
]}

As a next step, examine the molecule that follows.
Q. Hello, please tell me recorded growth inhibition for this one: Cc1ccc(S(=O)OCC23CC4CC(CC(C4)C2)C3)cc1 (centres undefined)
A. -30.6% (inactive)

###

test: NCI Yeast Anticancer Drug Screen. Data for the mec2-1 strain (AID 157); conditions: S. cerevisiae mec2-1 strain, at 50.0 µM, active compounds read high
This is part of a sample that, as a whole, favours compounds with a hit. Of some 79,000 tested, about 15% had one in any assay.
Listed next: entries and their corresponding growth inhibition.
Please give a number only; it is taken to be in %.

Known results for compounds:
{"columns": ["compound", "growth inhibition / %"],
 "data": [
  ["C=C[C@@]1(C)CCC2(O)C(CCC3C2(C)CCC[C@@]3(C)COC(=O)CC(=O)OC)C1 (stereo partly specified)", 72.1],
  ["O=c1[nH]n(CCc2ccccc2CCl)c2ccc([N+](=O)[O-])cc12", 14.6],
  ["O=C1CCCCc2cccc(O)c21", -3.85],
  ["CC(COc1cc(Cl)c(Cl)cc1Cl)OC(=O)COc1ccc(Cl)cc1Cl (stereo unspecified)", 8.85],
  ["CCn1c2ccccc2c2cc(N=Nc3cc(N)ccc3N(C)C)ccc21", -7.85]
]}

Q. Hello, please tell me recorded growth inhibition for this one: CC(=O)NCCO
A. -22.8

Q. Hello, please tell me recorded growth inhibition for this one: Cc1ccc(/C(=C/CN2CC3CCC(CC3)C2)c2ccccc2)cc1
A. -4.5

Q. Hello, please tell me recorded growth inhibition for this one: BrCc1ccc(C[P+](c2ccccc2)(c2ccccc2)c2ccccc2)cc1
A. 15.3

Q. Hello, please tell me recorded growth inhibition for this one: CC(=O)OC[C@]1(C)CCCC2(C)C1CCC1C=C(C)[C@H]3CCC12C3 (stereo partly specified)
A. -2.85

Q. Hello, please tell me recorded growth inhibition for this one: O=C(O)c1nnn(Cc2ccccc2)c1C(=O)O
A. -6

Q. Hello, please tell me recorded growth inhibition for this one: Cc1ccc(O)c(C(=O)CCCC(=O)c2cc(C)ccc2O)c1
A. 7.9

###

experiment: NCI Yeast Anticancer Drug Screen. Data for the bub3 strain (AID 167); conditions: S. cerevisiae bub3 mutant strain, at 50.0 µM, active compounds read high
The panel holds about 79,000 compounds, 15% with a hit somewhere; the sample as a whole holds those more often.
reported.metric: growth inhibition (%)
Please give a number only; it is taken to be in %.

Known results for compounds:
{"columns": ["compound", "growth inhibition / %"],
 "data": [
  ["CN(C)c1ccc(-c2cccc[n+]2C)cc1", 0.1],
  ["O=C(Nc1ccccc1C/C(=N/O)c1ccc2c(c1)OCO2)c1ccccc1", 3.55],
  ["CCN(CC)CCC(C)C(Cc1cccs1)OC(C)=O (stereo unspecified)", 35.2]
]}

Q. Hello, please tell me recorded growth inhibition for this one: COc1ccc(-c2cc3cc(CCCOC4OC(COC5OCC(O)C(O)C5O)C(O)C(O)C4O)cc(OC)c3o2)cc1OC (stereo unspecified)
A. 8.8

Q. Hello, please tell me recorded growth inhibition for this one: O=Cc1c(Cl)c(Cl)c(Cl)c(Cl)c1Cl
A. 4.6

Q. Hello, please tell me recorded growth inhibition for this one: CCC(CC)NNC(CC)CC
A. -16.3

###

assay: NCI Yeast Anticancer Drug Screen. Data for the sgs1 mgt1 strain (AID 161);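 note: 0% = growth of cultures given vehicle only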; settings: S. cerevisiae sgs1 mgt1 strain, at 50.0 µM, active compounds read high
Compounds without any hit were thinned out: in the full panel of roughly 79,000, 15% have a hit.
reported.metric: growth inhibition (%)
Please give a number only; it is taken to be in %.

{"columns": ["compound", "reported.metric", "readout.number"],
 "data": [
  ["CCOC(=O)/C(C#N)=C/c1c[nH]c2ccccc12", "growth inhibition", 3.5],
  ["Cc1cn(C(=O)NC23CC4CC(CC(C4)C2)C3)c(=O)[nH]c1=O", "growth inhibition", 11.1],
  ["O=C(Nc1cc(NC(=O)n2nnc3ccccc32)c(Br)cc1Br)n1nnc2ccccc21", "growth inhibition", 27.2]
]}

Q. Hello, please tell me recorded growth inhibition for this one: CC(C(OC(=O)C1c2ccccc2-c2ccccc21)c1ccccc1)N(C)C (stereo not given)
A. 99.5

Q. Hello, please tell me recorded growth inhibition for this one: N#CC(/C(=N/NC(N)=S)C(=O)Nc1cccc(Cl)c1)c1ccccc1 (stereo not given)
A. 10.4

###

test: NCI Yeast Anticancer Drug Screen. Data for the mlh1 rad18 strain (AID 175); details: S. cerevisiae mlh1 rad18 strain growth inhibition; at 50.0 µM; active compounds read high
Compounds without any hit were thinned out: in the full panel of roughly 79,000, 15% have a hit.
reported.metric: growth inhibition (%)
Please give a number only; it is taken to be in %.

Known results for compounds:
{"columns": ["compound", "growth inhibition (%)"],
 "data": [
  ["O=C(Oc1ccccc1OC(=O)c1ccc(Cl)cc1)c1ccc(Cl)cc1", 8.6],
  ["CC(C)C(CCN1CCCC1(C)C)(C(N)=O)c1ccccc1 (stereo unspecified)", 7.75],
  ["CCCCC(CC)C(=S)N1CCOCC1 (stereo unspecified)", -9.25],
  ["COc1ccc(-c2c(C(=O)O)cc(O)c3c(OC)c(OC)c(OC)cc23)cc1OC", 32.5],
  ["CC(C)(C)SC(=S)SCC(=O)c1cc2cc(Br)ccc2o1", -8.5],
  ["CC(C)(C)C(=O)N/N=C\\c1ccc([N+](=O)[O-])s1", 40.5],
  ["COc1cc(Nc2cnc3cc(N)ccc3n2)cc(OC)c1OC", -45.5],
  ["CC(=O)OCC1OC(N2C(=O)/C(=C/c3ccc4c(c3)OCO4)SC2=S)C(OC(C)=O)C(OC(C)=O)C1OC(C)=O (stereo unspecified)", 0.2]
]}

Q. Hello, please tell me recorded growth inhibition for this one: O=C(NCC1(O)CCCCC1)c1ccccc1
A. 1.3

Q. Hello, please tell me recorded growth inhibition for this one: CCCCCCCCCCCCCCCCCCn1cnc2ncnc(Cl)c21
A. 32.7

Q. Hello, please tell me recorded growth inhibition for this one: COC(=O)c1c(C)c(C)cc(C)c1C
A. -9.5

###

assay: NCI Yeast Anticancer Drug Screen. Data for the sgs1 mgt1 strain (AID 161);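 note: 0% = growth of cultures given vehicle only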; settings: S. cerevisiae sgs1 mgt1 strain, at 50.0 µM
Compounds without any hit were thinned out: in the full panel of roughly 79,000, 15% have a hit. The source made the active and inactive calls. Cut-off read from the data, not from the text of the source: active = growth inhibition above about 70%; inactive = the rest.
Select the matching outcome among TRUE = active, FALSE = inactive

Below, 5 compounds whose answers are already recorded.
{"columns": ["compound", "label"],
 "data": [
  ["CCN(CC)CCNCc1c[nH]c(=S)[nH]c1=O", "FALSE"],
  ["O=c1c[n+]([O-])c2ccccc2n1O", "FALSE"],
  ["CCCCCC(=O)Cc1cc(OC)cc2c1C(=O)Oc1cc(O)c(C(=O)O)c(CC(=O)CCCCC)c1O2", "TRUE"],
  ["CN(/N=C/C=N/N(C)C1=NCCCCN1)C1=NCCCCN1", "FALSE"],
  ["Clc1ccc(CN2COc3c(ccc4ccccc34)C2)cc1Cl", "FALSE"]
]}

Q. In this assay, the call recorded for COc1ccc2c(c1)CCCN2C(=N)c1ccc([N+](=O)[O-])cc1 was what?
A. FALSE

Q. In this assay, the call recorded for CC(=O)Nc1ccccc1C was what?
A. FALSE

Q. In this assay, the call recorded for NC1=NC(=O)C(CC(=O)Nc2ccc(Cl)cc2Cl)S1 (stereo not drawn) was what?
A. FALSE

Q. In this assay, the call recorded for CC(=O)OCC1OC(Nc2[nH]c(=O)n(C)c(=O)c2-c2csc(N)n2)C(OC(C)=O)C(OC(C)=O)C1OC(C)=O (stereo not drawn) was what?
A. FALSE

Q. In this assay, the call recorded for c1ccc(-c2coc(-c3ccccc3)c2)cc1 was what?
A. FALSE

Q. In this assay, the call recorded for S=C(Nc1ccc2ccccc2c1)Nc1ccc2ccccc2c1 was what?
A. FALSE

Q. In this assay, the call recorded for CC(=O)Nc1ccc(/C=C2\SC(=S)N(/C=C3/C(=O)N(c4ccccc4)N=C3C)C2=O)cc1 was what?
A. FALSE

Q. In this assay, the call recorded for Clc1ccccc1C(CI)c1ccccc1Cl was what?
A. FALSE

Q. In this assay, the call recorded for O=C1/C(=C/c2cccs2)CCc2ccccc21 was what?
A. FALSE

Q. In this assay, the call recorded for CC(=Nc1ccc(C)cc1N)c1c(O)cc(C)oc1=O was what?
A. FALSE

Q. In this assay, the call recorded for COc1cc2[nH]c3c(c2cc1OC)CCN[C@]31CC[C@]2(CC3c4c(cc(OC)c(O)c42)CCN3C)C[C@H]1OC (stereo partly drawn) was what?
A. FALSE

Q. In this assay, the call recorded for O=S(=O)(c1ccccc1)N1CN(S(=O)(=O)c2ccccc2)CN(S(=O)(=O)c2ccccc2)C1 was what?
A. FALSE

Q. In this assay, the call recorded for COC(=O)C1CSC(C)(C)N1 (stereo not drawn) was what?
A. FALSE

Q. In this assay, the call recorded for Cc1ccc(C(=O)CC2=NC3NN(c4ccccc4)C(=O)C3=C2CC(=O)c2ccc(C)cc2)cc1 (stereo not drawn) was what?
A. FALSE

Q. In this assay, the call recorded for C/C(=N\NC(=O)c1cccnc1)c1cccc(/C(C)=N/NC(=O)c2cccnc2)n1.CC(=O)[O-].CC(=O)[O-].[Zn+2] was what?
A. FALSE
